Hi there, I'd appreciate the recorded Hemolytic Assay IC50, Human AP for every entry that follows.
- subject of test: human complement component C3 (human, UniProt P01024 23-667; P01024 672-1663)
- Sequence (P01024 23-667, chain 1 of 2): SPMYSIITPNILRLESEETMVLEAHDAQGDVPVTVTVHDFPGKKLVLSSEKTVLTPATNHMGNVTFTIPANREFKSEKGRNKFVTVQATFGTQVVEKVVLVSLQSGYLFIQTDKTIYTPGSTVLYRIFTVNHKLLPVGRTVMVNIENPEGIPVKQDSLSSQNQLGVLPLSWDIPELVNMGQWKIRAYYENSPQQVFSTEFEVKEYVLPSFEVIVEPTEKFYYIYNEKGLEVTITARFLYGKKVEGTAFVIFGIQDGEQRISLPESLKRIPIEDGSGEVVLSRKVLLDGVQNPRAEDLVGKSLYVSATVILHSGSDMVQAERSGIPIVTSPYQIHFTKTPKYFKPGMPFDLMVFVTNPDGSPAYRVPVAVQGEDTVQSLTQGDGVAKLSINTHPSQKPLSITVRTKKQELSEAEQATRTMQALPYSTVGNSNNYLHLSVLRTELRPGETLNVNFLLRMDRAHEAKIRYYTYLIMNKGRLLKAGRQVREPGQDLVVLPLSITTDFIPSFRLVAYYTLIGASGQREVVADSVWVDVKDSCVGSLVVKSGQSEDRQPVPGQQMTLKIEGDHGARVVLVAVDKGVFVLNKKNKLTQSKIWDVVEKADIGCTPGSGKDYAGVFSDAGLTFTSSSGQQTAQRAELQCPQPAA
- Sequence (P01024 672-1663, chain 2 of 2): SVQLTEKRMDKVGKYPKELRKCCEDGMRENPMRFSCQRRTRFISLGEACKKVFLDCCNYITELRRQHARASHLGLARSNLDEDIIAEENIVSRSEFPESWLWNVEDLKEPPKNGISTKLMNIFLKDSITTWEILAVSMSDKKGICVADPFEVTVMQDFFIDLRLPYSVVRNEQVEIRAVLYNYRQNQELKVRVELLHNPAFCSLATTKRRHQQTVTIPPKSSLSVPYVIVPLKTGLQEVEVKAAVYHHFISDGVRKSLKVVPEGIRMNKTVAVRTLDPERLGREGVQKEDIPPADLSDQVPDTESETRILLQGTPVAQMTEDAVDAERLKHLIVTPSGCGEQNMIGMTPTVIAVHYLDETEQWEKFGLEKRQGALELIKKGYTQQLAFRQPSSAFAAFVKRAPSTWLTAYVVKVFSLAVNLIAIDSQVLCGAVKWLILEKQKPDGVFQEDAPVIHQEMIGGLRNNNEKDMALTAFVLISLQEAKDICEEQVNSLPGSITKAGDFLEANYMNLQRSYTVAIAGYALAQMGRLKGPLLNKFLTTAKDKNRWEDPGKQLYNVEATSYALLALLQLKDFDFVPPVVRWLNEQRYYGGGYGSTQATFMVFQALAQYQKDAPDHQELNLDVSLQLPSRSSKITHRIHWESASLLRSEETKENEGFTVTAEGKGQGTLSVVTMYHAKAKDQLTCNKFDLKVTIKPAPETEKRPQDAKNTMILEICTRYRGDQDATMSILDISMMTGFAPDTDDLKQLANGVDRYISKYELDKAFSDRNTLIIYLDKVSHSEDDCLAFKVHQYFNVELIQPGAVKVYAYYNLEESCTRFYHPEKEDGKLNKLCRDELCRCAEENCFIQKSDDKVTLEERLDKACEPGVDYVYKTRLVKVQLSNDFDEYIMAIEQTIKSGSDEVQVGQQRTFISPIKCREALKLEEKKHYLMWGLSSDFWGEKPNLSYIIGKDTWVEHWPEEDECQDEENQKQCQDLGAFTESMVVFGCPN
- protocol description: cell-based or functional assay
Numeric answer only, unit nM assumed.

Task: Any idea what Hemolytic Assay IC50, Human AP was measured for antibody 3D8 (antibody, V domains shown, Mouse hybridoma antibody raised against human C3) VH: EIQLQQSGAELVKPGASVKISCKASGYSFTGYNMNWVKQSHGKSLEWIGNINPYYGSTNYNQKFKGKATLTVDKSSTTAYMQLDSLTSEDSAVYYCARGYYGGNYPFAYWGQGTLVTVSA VL: DIQMTQSPASLSASVGETVTITCRASENIYSYLAWYQQKQGKSPQLLVYNAKTLAEGVPSRFSGSGSGTQFSLKINSLQPEDFGSYYCQHYYGTPYTFGGGSKVEIK ?
Output: 4.2

Task: What would you report for antibody 62B11 (antibody, V domains shown, Mouse hybridoma antibody) VH: EVKLVESGGGLVQPGGSLKLSCAASGFTFSSYTMSWVRQTPEKRLEWVAYISSGGGTTYYPDTVKGRFTVSRDNAKNTLYLQMSSLRSEDTAMYSCARRYYRGSSLWYFDVWGAGTTVTVSS VL: DIVMTQSPSSLTVTAGEKVTMSCKSSQSLFNSGSQKNFLTWYQQRPGQPPKLLIYWASTRESGVPDRFTGSGSGTDFTLTISSVQAEDLAVYYCQNDYSYPLTFGAGTKLELK ?
Output: 6.6

Task: Here is the next binder: antibody 3G8 (antibody, V domains shown, Mouse hybridoma antibody) VH: EIQLQQSGAELVKPGASVKISCMASGYSFTGYNMNWVKQSHGKGLEWIGNINPYYDSTSYNQKFKGKATLTVDKSSSTAYMQLNSLTSEDSAVYYCARENYDFVGFAYWGQGTLVTVSA VL: QIVLSQSPAILSASPGEKVTMTCRASSSVSYMHWFQQKPGSSPKPWIYVTSNLASGVPPRFSGSGSGTSYSLTISRVEAEDAATYYCQQWSTNPLTFGAGTKLELK
Output: 6.8

Task: Further, for antibody 62F2 (antibody, V domains shown, Mouse hybridoma antibody) VH: DVQLQESGPDLVKPSQSLSLTCTVTGYSITSGYSLHWIRQFPGNKLEWMGYIHYSGSTNYNPSLKSRISITRDTSKNQFFLKLNSVTSEDTATYHCARAWDYLDYWGQGTTLTVSS VL: DIQMTQSPASLSASVGETVTITCRASENIYSQLAWYQQKQGKSPQLLVYDAKTLAEGVPSRFSGSGSDTQFSLKIISLQPEDFGRYYCHHHFGILYTFGGGTKLEMK ?
Output: 5.7

Task: Query antibody 38F5 (antibody, V domains shown, Mouse hybridoma antibody) VH: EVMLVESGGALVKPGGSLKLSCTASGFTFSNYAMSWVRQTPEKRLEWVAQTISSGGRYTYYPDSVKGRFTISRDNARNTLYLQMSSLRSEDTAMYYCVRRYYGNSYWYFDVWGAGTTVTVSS VL: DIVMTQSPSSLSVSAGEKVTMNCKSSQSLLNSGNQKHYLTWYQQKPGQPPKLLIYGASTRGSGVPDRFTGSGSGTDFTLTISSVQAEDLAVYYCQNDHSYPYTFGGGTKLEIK next
Output: 9.2
